tested on: human osteosarcoma cell line SJSA-1; test: Inhibition of proliferation of human osteosarcoma cell line SJSA-1 (DAPI staining, In Cell Analyzer); conditions: Homo sapiens, SJSA-1, 72 h, read-out: IC50 (nM), inhibitory activity on proliferation of human osteosarcoma cell line SJSA-1, SJSA-1, incubated 72 h
Consider the following molecules; for each one, report its IC50.
Give the value in nM but do not write nM after it.

IC50 measured on COc1cc(C(C)C)ncc1-c1nc2c(n1C(C)C)[C@@]1(C(=O)Nc3cc(Cl)ccc31)N(c1cc(Cl)cnc1C)C2=O = 38.1

IC50 measured on CCOc1ncc(-c2nc3c(n2C(C)C)[C@]2(C(=O)Nc4cc(Cl)ccc42)N(c2cc(Cl)ccc2F)C3=O)c(OC)n1 = 396

IC50 measured on COc1ncc(-c2nc3c(n2C(C)C)[C@]2(C(=O)Nc4cc(Cl)ccc42)N(c2ccc(F)c(Cl)c2)C3=O)c(OC)n1 = 16300

IC50 measured on COc1nc(N2CCC2)ncc1-c1nc2c(n1C(C)C)[C@@]1(C(=O)Nc3cc(Cl)ccc31)N(c1cc(Cl)ccc1C)C2=O = 14.4

IC50 measured on COc1nc(C(C)C)ncc1-c1nc2c(n1C(C)C)[C@@]1(C(=O)Nc3cc(Cl)ccc31)N(c1cc(Cl)ccc1C)C2=O = 53.3

IC50 measured on COc1cc(OCCF)ncc1-c1nc2c(n1C(C)C)[C@]1(C(=O)Nc3cc(Cl)ccc31)N(c1cccc(Cl)c1)C2=O = 4250

IC50 measured on COc1nc(N(C)C)ncc1-c1nc2c(n1C(C)C)[C@@]1(C(=O)Nc3cc(Cl)ccc31)N(c1cccc(Cl)c1)C2=O = 90.6

IC50 measured on COc1cc(OC)c(-c2nc3c(n2C(C)C)[C@@]2(C(=O)Nc4cc(Cl)ccc42)N(c2cc(Cl)ccc2C)C3=O)cc1F = 19.9

IC50 measured on COc1cc(N(C)C)ccc1-c1nc2c(n1C(C)C)[C@@]1(C(=O)Nc3cc(Cl)ccc31)N(c1cc(Cl)ccc1F)C2=O = 82.8

IC50 measured on COc1ccccc1-c1nc2c(n1C(C)C)[C@]1(C(=O)Nc3cc(Cl)ccc31)N(c1cc(Cl)c(=O)n(C)c1)C2=O = 77400

IC50 measured on COc1ncc(-c2nc3c(n2C(C)C)[C@@]2(C(=O)Nc4cc(Cl)ccc42)N(c2cc(Cl)cn(C)c2=O)C3=O)c(OC)n1 = 3560

IC50 measured on COc1ccc(C)cc1-c1nc2c(n1C(C)C)[C@@]1(C(=O)Nc3cc(Cl)ccc31)N(c1cc(Cl)ccc1C)C2=O = 10.5

IC50 measured on COc1cc(OCCF)ncc1-c1nc2c(n1C(C)C)[C@@]1(C(=O)Nc3cc(Cl)ccc31)N(c1cccc(Cl)c1)C2=O = 421

====

Consider the following compounds; for each one, report its AUC(0-t).
experiment: Pharmacokinetics in ICR mice after intravenous and intragastric administration; format: in vivo; details: male, ICR, mouse, plasma, po, 5 mg/kg, ICR mice, PO 5 mg/kg, individual animal; read-out: AUC(0-t)
Give the value in ng·h/mL but do not write ng·h/mL after it.

AUC(0-t) measured on COc1cc(C2CC2)ncc1-c1nc2c(n1C(C)C)[C@@]1(C(=O)Nc3cc(Cl)ccc31)N(c1cc(Cl)ccc1C)C2=O = 11000

AUC(0-t) measured on COc1cc(OC)c(-c2nc3c(n2C(C)C)[C@@]2(C(=O)Nc4cc(Cl)ccc42)N(c2cccc(Cl)c2)C3=O)cn1 = 3660

AUC(0-t) measured on COc1cc(OC(C)C)ncc1-c1nc2c(n1C(C)C)[C@@]1(C(=O)Nc3cc(Cl)ccc31)N(c1cc(Cl)ccc1C)C2=O = 69200

AUC(0-t) measured on COc1cc(OC)c(-c2nc3c(n2C(C)C)[C@@]2(C(=O)Nc4cc(Cl)ccc42)N(c2cc(Cl)cnc2C)C3=O)cn1 = 3740

AUC(0-t) measured on COc1nc(C2CC2)ncc1-c1nc2c(n1C(C)C)[C@@]1(C(=O)Nc3cc(Cl)ccc31)N(c1cc(Cl)ccc1C)C2=O = 40100

AUC(0-t) measured on COc1ncc(-c2nc3c(n2C(C)C)[C@@]2(C(=O)Nc4cc(Cl)ccc42)N(c2cc(F)cc(Cl)c2)C3=O)c(OC)n1 = 5860

====

Consider the following compounds; for each one, report its Cmax.
assay: Pharmacokinetics in ICR mice after intravenous and intragastric administration; format: in vivo; conditions: male, ICR, mouse, plasma, iv, 2 mg/kg, ICR mice, IV 2 mg/kg, individual animals 301-303; read-out: Cmax
Give the value in ng/mL but do not write ng/mL after it.

Cmax measured on CCOc1ncc(-c2nc3c(n2C(C)C)[C@@]2(C(=O)Nc4cc(Cl)ccc42)N(c2cc(Cl)cnc2C)C3=O)c(OC)n1 = 3520

Cmax measured on COc1cc(OC(C)C)ncc1-c1nc2c(n1C(C)C)[C@@]1(C(=O)Nc3cc(Cl)ccc31)N(c1cc(Cl)cnc1C)C2=O = 5260

Cmax measured on COc1nc(N(C)C)ncc1-c1nc2c(n1C(C)C)[C@@]1(C(=O)Nc3cc(Cl)ccc31)N(c1cc(Cl)cnc1C)C2=O = 3900

====

assay: Pharmacokinetics in ICR mice after intravenous and intragastric administration; assay type: in vivo; conditions: male, ICR, mouse, plasma, iv, 2 mg/kg, ICR mice, IV 2 mg/kg, individual animal; read-out: MRT(0-t)
Consider the following compounds; for each one, report its MRT last.
State the value with its unit after it.

MRT last measured on CCOc1cc(OC)c(-c2nc3c(n2C(C)C)[C@@]2(C(=O)Nc4cc(Cl)ccc42)N(c2cc(Cl)ccc2C)C3=O)cn1 = 1.53 h

MRT last measured on CCOc1cc(OC)c(-c2nc3c(n2C(C)C)[C@@]2(C(=O)Nc4cc(Cl)ccc42)N(c2cc(Cl)ccc2F)C3=O)cn1 = 1.55 h

MRT last measured on COc1cc(OC(C)C)ncc1-c1nc2c(n1C(C)C)[C@@]1(C(=O)Nc3cc(Cl)ccc31)N(c1cc(Cl)ccc1C)C2=O = 4.38 h

MRT last measured on COc1nc(C2CC2)ncc1-c1nc2c(n1C(C)C)[C@@]1(C(=O)Nc3cc(Cl)ccc31)N(c1cc(Cl)ccc1C)C2=O = 5.15 h

MRT last measured on COc1cc(C(C)C)ccc1-c1nc2c(n1C(C)C)[C@@]1(C(=O)Nc3cc(Cl)ccc31)N(c1cc(Cl)ccc1C)C2=O = 1.61 h

MRT last measured on COc1ccc(-c2nc3c(n2C(C)C)[C@@]2(C(=O)Nc4cc(Cl)ccc42)N(c2cc(Cl)cnc2C)C3=O)c(OC)c1 = 0.99 h

MRT last measured on COc1cc(OC)c(-c2nc3c(n2C(C)C)[C@@]2(C(=O)Nc4cc(Cl)ccc42)N(c2cc(Cl)cnc2C)C3=O)cn1 = 0.71 h

MRT last measured on COc1ncc(-c2nc3c(n2C(C)C)[C@@]2(C(=O)Nc4cc(Cl)ccc42)N(c2cc(Cl)ccc2F)C3=O)c(OC)n1 = 1.71 h

MRT last measured on COc1ncc(-c2nc3c(n2C(C)C)[C@@]2(C(=O)Nc4cc(Cl)ccc42)N(c2cc(F)cc(Cl)c2)C3=O)c(OC)n1 = 1.34 h

MRT last measured on COc1cc(OC)c(-c2nc3c(n2C(C)C)[C@@]2(C(=O)Nc4cc(Cl)ccc42)N(c2cc(Cl)ccc2F)C3=O)cn1 = 1.18 h

MRT last measured on COc1cc(OC)c(-c2nc3c(n2C(C)C)[C@@]2(C(=O)Nc4cc(Cl)ccc42)N(c2cccc(Cl)c2)C3=O)cn1 = 0.9 h

====

experiment: Pharmacokinetics in ICR mice after intravenous and intragastric administration; type: in vivo; details: PO 5 mg/kg, ICR mice, individual animal; 5 mg/kg
readout.type: Tmax (h)
Give the value in h but do not write h after it.

Tmax measured on COc1ccc(-c2nc3c(n2C(C)C)[C@@]2(C(=O)Nc4cc(Cl)ccc42)N(c2cc(Cl)ccc2C)C3=O)c(OC)c1 = 1.00

Tmax measured on COc1ncc(-c2nc3c(n2C(C)C)[C@@]2(C(=O)Nc4cc(Cl)ccc42)N(c2cc(Cl)ccc2C)C3=O)c(OC)n1 = 1.00

Tmax measured on COc1cc(N(C)C)ccc1-c1nc2c(n1C(C)C)[C@@]1(C(=O)Nc3cc(Cl)ccc31)N(c1cc(Cl)ccc1C)C2=O = 0.50

Tmax measured on COc1cc(OC)c(-c2nc3c(n2C(C)C)[C@@]2(C(=O)Nc4cc(Cl)ccc42)N(c2cc(Cl)ccc2C)C3=O)cn1 = 2.00

====

assay: Pharmacokinetics in ICR mice after intravenous and intragastric administration; format: in vivo; conditions: male, ICR, mouse, plasma, iv, 2 mg/kg, ICR mice, IV 2 mg/kg, mean of 3 animals; second AUC column (c5) of Table 26; read-out: AUC(0-t)
readout.type: AUC(0-t) (ng·h/mL)
Give the value in ng·h/mL but do not write ng·h/mL after it.

AUC(0-t) measured on COc1nc(OCCF)ncc1-c1nc2c(n1C(C)C)[C@@]1(C(=O)Nc3cc(Cl)ccc31)N(c1cc(Cl)ccc1C)C2=O = 14900
